molecular target: GPR119 (Homo sapiens, UniProt Q8TDV5); construct: host or cells: CHO-K1 (GPR119 CRE-bla, doxycycline-induced); assay: cAMP Accumulation Assay (GPR119 CRE-bla CHO-K1 cells, LiveBLAzer-FRET B/G); type: cell-based; conditions: (Emax of the test compound/Emax of MBX-2982)x100, 5 hours incubation
Sequence (Q8TDV5 whole entry): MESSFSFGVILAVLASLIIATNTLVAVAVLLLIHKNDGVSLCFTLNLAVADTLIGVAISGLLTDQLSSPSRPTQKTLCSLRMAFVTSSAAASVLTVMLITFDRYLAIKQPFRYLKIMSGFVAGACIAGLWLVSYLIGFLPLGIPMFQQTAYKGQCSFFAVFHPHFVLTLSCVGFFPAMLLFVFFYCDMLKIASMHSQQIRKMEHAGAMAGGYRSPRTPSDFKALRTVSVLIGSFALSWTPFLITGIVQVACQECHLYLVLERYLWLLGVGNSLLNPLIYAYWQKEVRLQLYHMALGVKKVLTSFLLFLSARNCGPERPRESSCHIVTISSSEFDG
recorded_metric: Emax (% RR)

CCc1cnc(N2CCN(c3ncc(-c4ccc(-n5cnn(CC(=O)N6CCCC6)c5=O)c(F)c4)cc3C#N)CC2)nc1 :: 110.0
CC(C)c1nc(C2CCN(c3ncc(-c4ccc(-n5cnn([C@@H]6CCOC6)c5=O)cc4)cc3C#N)CC2)no1 :: 120.0
CCCn1ncn(-c2ccc(-c3cnc(N4CCN(c5noc(C(C)C)n5)CC4)c(C#N)c3)cc2F)c1=O.Cl :: 144.7
C[C@H]1CN(C(=O)OC(C)(C)C)CCN1c1ncc(-c2ccc(-n3cnn(C)c3=O)c(F)c2)cn1 :: 123.9
CCc1cnc(N2CCN(c3ncc(-c4ccc(-n5cnn(CCN(CC)CC)c5=O)c(F)c4)cc3C#N)[C@@H](C)C2)nc1 :: 104.5
CC(C)n1ncn(-c2ccc(-c3cnc(N4CCC(N(C)C(=O)OC(C)(C)C)CC4)c(C#N)c3)cc2F)c1=O :: 105.4
CCc1cnc(N2CCN(c3ncc(-c4ccc(-n5cnn(COC)c5=O)c(F)c4)cc3C#N)[C@@H](C)C2)nc1 :: 119.3
